Values compiled from patent US20090291081A1.

So I've got a bunch of binders here, and I need their IL-1β IC50 values.
# measurement.target: human IL-1β (human, UniProt P01584 117-269)
# assay.name: cell-based or functional assay
The reply should be a number in nM, with the unit left off.

Need IL-1β IC50 of ABT2-108-620x/ABT1-122-512 huIgG1/K wt (bispecific antibody, V domains shown) VH: EVQLLESGGGLVQPGGSLRLSCAASGFTFAEESWMWVRQAPGKGLEWVSRIGQDGKNTYYREDVKGRFTISRDNSKNTLYLQMNSLRAEDTAVYYCAKYTGRIMGHHLFDYWGQGTLVTVSS VL: DIQMTQSPSSLSASVGDRVTITCRASQPIWTELNWYQQKPGKAPKLLIYGSAKRQRGVPSRFSGSGSGTDFTLTISSLQPEDFATYYCKQFAYFPATFGQGTKVEIKR , thanks. 0.006

GET /values?readout=IL-1β IC50&item= ABT2-65-8/ABT1-212 hu IgG1/K wt (bispecific antibody, V domains shown) VH: EVQLLESGGGLVQPGGSLRLSCAASGFTFEDYQMGWVRQAPGKGLEWVSSISAMGNRTYYADSVKGRFTISRDDSKNTLYLQMNSLRAEDTAVYYCAQNLVRMDSRRWMFDYWGQGTLVTVSS VL: DIQMTQSPSSLSASVGDRVTITCRASQRINGNLRWYQQKPGKAPKLLIYSVSQLQSGVPSRFSGSGSGTDFTLTISSLQPEDFATYYCQQGYDWPPTFGQGTKVETKR 3.5

Fill blank: measured IL-1β IC50 of the binder ABT2-108/ABT1-95-3 hu IgG1/K wt (bispecific antibody, V domains shown) VH: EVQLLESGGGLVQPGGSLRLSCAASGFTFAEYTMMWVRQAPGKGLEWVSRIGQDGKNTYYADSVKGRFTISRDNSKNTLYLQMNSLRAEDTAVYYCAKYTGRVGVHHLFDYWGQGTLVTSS VL: DIQMTQSPSSLSASVGDRVTITCRASQPIHGNLRWYQQKPGKAPKLLIYSSSYLQSGVPSRFSGSGSGTDFTLTISSLQPEDFATYHCQQGYRWPVTFGQGTKVEIKR is ____. 200
